# Assay: Pharmacokinetics after oral administration in rats
# Type: in vivo, Sprague-Dawley rats
# Recorded Conditions: Sprague-Dawley, rat, plasma, po, 0.06 mmol/kg
Observed Property: CL/F
Field: value (include unit after the number)

Would you kindly share the measured CL/F for O=c1[nH]cc(F)c(=O)[nH]1 ?
197 mL/min/kg

###

# Assay: Acute toxicity study
# Format: in vivo
# Recorded Conditions: in vivo, LD50 (median lethal dose), acute toxicity
Observed Property: LD50 (µmol/kg)
API: value field is a number in µmol/kg; no unit string.

Would you kindly share the measured LD50 for O=c1[nH]cc(F)c(=O)[nH]1 [5-FU, 5-Fluorouracil] ?
1000

###

# Assay: Pharmacokinetics after oral administration in rats
# Format: in vivo, Sprague-Dawley rats
# Recorded Conditions: Sprague-Dawley, rat, plasma, po, 0.06 mmol/kg
Observed Property: AUC(0-inf) (µM·h)
API: value field is a number in µM·h; no unit string.

Would you kindly share the measured AUC(0-inf) for O=c1[nH]cc(F)c(=O)[nH]1 [5-FU, 5-Fluorouracil] ?
5.07

###

# Assay: Acute toxicity study
# Type: in vivo
# Recorded Conditions: in vivo, LD50 95% confidence interval, acute toxicity
Observed Property: LD50

Would you kindly share the measured LD50 for O=c1[nH]cc(F)c(=O)[nH]1 ?
380 to 2630 µmol/kg

###

# Assay: Pharmacokinetics after oral administration in rats
# Assay type: in vivo, Sprague-Dawley rats
# Recorded Conditions: Sprague-Dawley, rat, plasma, po, 0.06 mmol/kg
Observed Property: half-life (min)
API: value field is a number in min; no unit string.

Would you kindly share the measured half-life for O=c1[nH]cc(F)c(=O)[nH]1 ?
18.1

###

# Assay: Pharmacokinetics after oral administration in rats
# Type: in vivo, Sprague-Dawley rats
# Recorded Conditions: Sprague-Dawley, rat, plasma, po, 0.06 mmol/kg
Observed Property: Tmax (min)
API: value field is a number in min; no unit string.

Would you kindly share the measured Tmax for O=c1[nH]cc(F)c(=O)[nH]1 ?
20
